Ref: patent US9394310B2

Structures can show the parent of a compound that is named as a salt.
Reported IC50 for target or system DOT1L (1-416) (Homo sapiens, UniProt Q8TEK3), by entry.
measurement_label: IC50

> print(dat)
                                   compound      result
1  CC(C)N(CCCCc1nc2cc(C(C)(C)C)ccc2[nH]1)C[C@H]1C[C@@H](n2ccc3c(N)ncnc32)[C@H](O)[C@@H]1O    < 100 nM
2  CS(=O)(=O)N(CCCCc1nc2cc(Cl)c(Cl)cc2[nH]1)C[C@H]1C[C@@H](n2ccc3c(NC4CC4)ncnc32)[C@H](O)[C@@H]1O  < 10000 nM
3  CN(CCCCc1nc2cc(C(F)(F)F)c(Cl)cc2[nH]1)C[C@H]1C[C@@H](n2ccc3c(NC4CC4)ncnc32)[C@H](O)[C@@H]1O    < 100 nM
4  CS(=O)(=O)N(CCCCc1nc2cc(C(F)(F)F)c(Cl)cc2[nH]1)C[C@H]1C[C@@H](n2ccc3c(N)ncnc32)[C@H](O)[C@@H]1O   < 1000 nM
5  CN(CCCNC(=O)Nc1ccc(C(C)(C)C)cc1)C[C@H]1C[C@@H](n2cnc3c(N)ncnc32)[C@H](O)[C@@H]1O    < 100 nM
6  CC(C)N(CCCCc1nc2cc(Cl)c(Cl)cc2[nH]1)C[C@H]1C[C@@H](n2ccc3c(NC4CC4)ncnc32)[C@H](O)[C@@H]1O [Compound 9, trihydrochloride]    < 100 nM
7  CN(CCCCc1nc2cc(C(F)(F)F)c(Cl)cc2[nH]1)C[C@H]1C[C@@H](n2ccc3c(N)ncnc32)[C@H](O)[C@@H]1O    < 100 nM
